B1: Myocardin-related transcription factor A, residues 341 to 383; numbered along this chain, Q969V6 (parent)
chain: GALPANLDDMKVAELKQELKLRSLPVSGTKTELIERLRAYQDQ

variants of: B1; assay: abundance fitness (aPCA) (normalised: wild type 0, dead -1); higher = more abundant; growth selection in yeast, the domain comes from the species named; details: Homo sapiens
Classes by abundance fitness: c1 = under -0.3, c2 = from -0.3 up to -0.1, c3 = -0.1 and over

>>> classification("R22V")
"c2"
>>> classification("T29C")
"c2"
>>> classification("K30E")
"c2"

Input: Dear colleague, I would appreciate it if you could identify the bin for `P25W` and reply at your convenience.
Output: c1

Input: Dear colleague, I would appreciate it if you could identify the bin for `G28Y` and reply at your convenience.
Output: c1
